Origin of measurements: ChEMBL document CHEMBL1155883

Test system: Human immunodeficiency virus 1
Assay: Antiviral activity against HIV1 NL4-3 in human MT4 cells assessed as inhibition of virus-induced cytopathogenicity by MTT assay
Format: functional, organism-based
Conditions: Human immunodeficiency virus 1, NL4-3, MT4
Criterion: EC50 strictly under 300 nM. Met: yes. Not met: no.

[[record]]
record_smiles = "O=C(CSc1nc(Cc2c(F)cccc2Cl)cc(=O)[nH]1)c1ccc(F)cc1"
assigned_label = "yes"

[[record]]
record_smiles = "COc1ccc(C(=O)CSc2nc(Cc3cccc4ccccc34)c(C(C)C)c(=O)[nH]2)cc1"
assigned_label = "yes"

[[record]]
record_smiles = "Cc1cc(C)cc(CSc2nc(Cc3c(F)cccc3F)c(C)c(=O)[nH]2)c1"
assigned_label = "no"

[[record]]
record_smiles = "Cc1c(Cc2c(Cl)cccc2Cl)nc(SCC(=O)c2ccc(F)cc2)[nH]c1=O"
assigned_label = "yes"

[[record]]
record_smiles = "COc1ccc(C(=O)CSc2nc(Cc3c(F)cccc3Cl)c(C(C)C)c(=O)[nH]2)cc1"
assigned_label = "yes"


* * *

Listed next: entries and their corresponding EC50.
Tested on: Human immunodeficiency virus 1
Experiment: Antiviral activity against HIV1 isolates with reverse transcriptase Y188L mutation in human MT4 cells assessed as inhibition of virus-induced cytopathogenicity by MTT assay
Assay type: functional, organism-based
Details: Human immunodeficiency virus 1, MT4
READOUT NAME: EC50

[[record]]
record_smiles = "O=C(CSc1nc(Cc2c(F)cccc2Cl)cc(=O)[nH]1)c1ccc(F)cc1"
readout_name = "EC50"
value_measured = "> 61 µM"

[[record]]
record_smiles = "CC(C)c1c(Cc2c(Cl)cccc2Cl)nc(SCC(=O)c2ccc(F)cc2)[nH]c1=O"
readout_name = "EC50"
value_measured = "> 54 µM"

[[record]]
record_smiles = "Cc1c(Cc2c(F)cccc2Cl)nc(SCC(=O)c2ccc(F)cc2)[nH]c1=O"
readout_name = "EC50"
value_measured = "> 59 µM"

[[record]]
record_smiles = "CCc1c(Cc2c(F)cccc2F)nc(SCC(=O)c2ccc(F)cc2)[nH]c1=O"
readout_name = "EC50"
value_measured = "> 60 µM"

[[record]]
record_smiles = "Cc1c(Cc2c(F)cccc2Cl)nc(SCC(=O)c2ccccc2)[nH]c1=O"
readout_name = "EC50"
value_measured = "> 12 µM"


* * *

System: Human immunodeficiency virus 1
Test: Resistance index, ratio of ID50 for reverse transcriptase K103N mutant to IC50 for wild-type HIV1 sreverse transcriptase
READOUT NAME: Ratio

[[record]]
record_smiles = "Cc1c(Cc2c(F)cccc2F)nc(SCC(=O)c2ccccc2)[nH]c1=O"
value_measured = 32

[[record]]
record_smiles = "CC(C)c1c(Cc2c(Cl)cccc2Cl)nc(SCC(=O)c2ccccc2)[nH]c1=O"
value_measured = 894

[[record]]
record_smiles = "CC(C)c1c(Cc2c(F)cccc2Cl)nc(SCC(=O)c2ccc(F)cc2)[nH]c1=O"
value_measured = 1670

[[record]]
record_smiles = "CCc1c(Cc2c(F)cccc2F)nc(SCC(=O)c2ccc(F)cc2)[nH]c1=O"
value_measured = 60

[[record]]
record_smiles = "O=C(CSc1nc(Cc2c(F)cccc2Cl)cc(=O)[nH]1)c1ccc(F)cc1"
value_measured = 22

[[record]]
record_smiles = "Cc1c(Cc2c(Cl)cccc2Cl)nc(SCC(=O)c2ccccc2)[nH]c1=O"
value_measured = 53

[[record]]
record_smiles = "COc1ccc(CSc2nc(Cc3c(Cl)cccc3Cl)c(C)c(=O)[nH]2)cc1"
value_measured = 25500

[[record]]
record_smiles = "CCc1c(Cc2c(F)cccc2F)nc(SCC(=O)c2ccc(OC)cc2)[nH]c1=O"
value_measured = 110

[[record]]
record_smiles = "Cc1c(Cc2c(F)cccc2Cl)nc(SCC(=O)c2ccccc2)[nH]c1=O"
value_measured = 1920

[[record]]
record_smiles = "COc1ccc(C(=O)CSc2nc(Cc3c(F)cccc3F)c(C)c(=O)[nH]2)cc1"
value_measured = 87

[[record]]
record_smiles = "COc1ccc(C(=O)CSc2nc(Cc3c(F)cccc3Cl)cc(=O)[nH]2)cc1"
value_measured = 243

[[record]]
record_smiles = "CCc1c(Cc2c(F)cccc2F)nc(SCC(=O)c2ccccc2)[nH]c1=O"
value_measured = 86

[[record]]
record_smiles = "CCc1c(Cc2c(Cl)cccc2Cl)nc(SCC(=O)c2ccc(OC)cc2)[nH]c1=O"
value_measured = 21

[[record]]
record_smiles = "Cc1ccnc2c1NC(=O)c1cccnc1N2C1CC1"
value_measured = 17

[[record]]
record_smiles = "CCc1c(Cc2c(Cl)cccc2Cl)nc(SCC(=O)c2ccc(F)cc2)[nH]c1=O"
value_measured = 43

